Where these numbers come from: ChEMBL document CHEMBL3091309

- experimental protocol: Initial plasma concentration in rhesus monkey at 13.4 mg/kg, iv
- Type: ADME, organism-based, Macaca mulatta
- Design: dose 13.4 mg/kg, route intravenous
measured metric: C0 (ng/mL)
// note: answer is a bare numeric in ng/mL

## Input Name the reported C0 value associated with the molecule "Cc1ccc(NC(=O)C(=O)NC2CC(C)(C)NC(C)(C)C2)cc1"
## Output 1500

----------
- experimental protocol: Plasma concentration in rhesus monkey at 13.4 mg/kg, iv after 24 hrs by HPLC analysis
- Format: ADME, organism-based, Macaca mulatta
- Parameters: dose 13.4 mg/kg, route intravenous
measured metric: concentration at 24 h (ng/mL)
// note: answer is a bare numeric in ng/mL

## Input Name the reported concentration at 24 h value associated with the molecule "Cc1ccc(NC(=O)C(=O)NC2CC(C)(C)NC(C)(C)C2)cc1.Cl"
## Output 415
